B1: library; a variant is named by its letters at N, in order (parent)
chain: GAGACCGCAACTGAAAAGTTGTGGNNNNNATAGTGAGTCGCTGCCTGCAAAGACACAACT

Variants of: B1
measurement protocol: ligation selection enrichment (abundance after / before one-round selection) (fold); higher = more template-directed ligation activity
details: with T7Psub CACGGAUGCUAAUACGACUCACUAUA; MgCl2 25 mM; 42 °C; 4 h; pH 8.5
Mark NO for ligation selection enrichment values under 0.2, and YES for everything at or above.

| variant spec | class label |
| --- | --- |
| GCGAA | YES |
| TCAAT | YES |
| ACAGT | NO |
| ACATT | YES |
| GCAAC | YES |
| TAAGT | NO |
| GCTTC | NO |
| CAAGA | NO |
| GCTAC | NO |
| ATAAA | YES |
| CATAC | NO |
| TAGCA | YES |
| AACCC | YES |
| CTCAG | NO |
| GTTGC | YES |
